test system: MDA-MB-468 breast; experiment: NCI-60 one-dose screen, 48 h (100 = growth as untreated, 0 = no growth, -100 = all killed); details: 10 µM unless noted
This is part of a sample that, as a whole, favours compounds with a hit. Of some 83,000 tested, about 20% had one in any assay. Activity calls are given as the source filed them. The calls were made as follows: active = growth percent below 10; inactive = the rest.
Kindly supply the reported growth values for the records listed here.

### Prompt Which growth value belongs to O=C1c2ccc3c4c5ccc(c24)C(=O)N1CCCOCCCCOCCCNCc1ccc(cc1)CNCCCOCCCCOCCCN(C3=O)C5=O ?
### Response -81.4% (active)

### Prompt Field entry: COc1cc(/C=C/C(=O)N2CCC=CC2=O)cc(OC)c1OC
### Response 22.7% (inactive)

### Prompt Also check COc1ccc(C(Cc2ccccc2)NCCN2CCOCC2)cc1 (stereo not given)
### Response 99.6% (inactive)

### Prompt Now this one: CSc1nc2c(c(=O)[nH]1)C(c1ccc(Cl)cc1)C1=C(N2)/C(=C/c2ccc(Cl)cc2)CNC1 (stereo not given)
### Response 48.4% (inactive)

### Prompt For OCCN1CCN(CCCN2c3ccccc3Sc3ccc(C(F)(F)F)cc32)CC1 then?
### Response -47.1% (active)

### Prompt Same thing, different molecule: O=C1Nc2ccccc2/C1=C/c1ccc(COCC2CO2)n1-c1ccc(O)cc1 (stereo not given)
### Response 95.9% (inactive)

### Prompt Same question, CCCn1c(=S)sc2c(NNC(C)=O)nc(C)nc21 this time
### Response 93.1% (inactive)

### Prompt Another molecule to check: O=C1NN(C(=O)c2ccc(Cl)cc2)C(c2ccccc2)=N/C1=C\c1cn(-c2ccccc2)nc1-c1ccccc1
### Response 81.9% (inactive)

### Prompt Now the molecule NC(N)=Nc1ccc(Oc2cccc(NC(N)=Nc3ccc(Cl)c(C(F)(F)F)c3)c2)cn1
### Response 6.72% (active)

### Prompt Param item: N=C(N)c1ccc(-c2ccc(-c3ccc(Cl)c(Cl)c3)o2)cc1
### Response -70.3% (active)

====

tested on: MDA-MB-468 breast; test: NCI-60 one-dose screen, 48 h (100 = growth as untreated, 0 = no growth, -100 = all killed); details: 10 µM unless noted
The panel holds about 83,000 compounds, 20% with a hit somewhere; the sample as a whole holds those more often.
QUANTITY: growth (%)
Numbers only here, please. The scale is %.

### Prompt For COC(=O)Cc1cc(COC(C)=O)ccc1C , what is its reported growth?
### Response 108

### Prompt What would you report for CCOC(=O)C1=C(C)Nc2nc3ccccc3n2C1c1ccccc1 (stereo not given) ?
### Response 85.6

### Prompt Subsequent entry: CC/C(=C(\CC)c1ccc(OCC[N+](C)(C)C)cc1)c1ccc(OC)cc1
### Response 2.58

### Prompt Now this one: Cc1ccc2c(n1)C(=O)C(Cl)=C(Nc1cccc(C(F)(F)F)c1)C2=O
### Response -65.2

### Prompt Also Cn1c(=O)cc2c3c(c(NCCCO)ccc31)C(=O)c1ccccc1-2 ?
### Response 39.8

### Prompt Also check CCCCCC(=O)OCc1ccc(Cl)c(Cl)c1
### Response 123

### Prompt What about this molecule? CC(=O)O[C@H]1Cc2c([nH]c3ccccc23)[C@@H](c2ccc(Cl)cc2)N1C(=O)CCNC(C)(C)C
### Response 8.31

### Prompt Please answer likewise for COc1ccc(CNCCCN2C(=O)c3ccc4c5c(ccc(c35)C2=O)C(=O)N(CCCNCc2ccc(OC)c(OC)c2OC)C4=O)c(OC)c1OC
### Response -94.8

### Prompt // next record CC(C)Sc1nc(-c2ccc(Br)cc2)c(C#N)c(N2CCCCC2)n1
### Response 93.9

### Prompt // next record Cl/C(=N\Nc1ccccc1)c1ccccc1
### Response 79

====

test system: MDA-MB-468 breast; test: NCI-60 one-dose screen, 48 h (100 = growth as untreated, 0 = no growth, -100 = all killed); conditions: 10 µM unless noted
About 83,000 compounds went through this panel and 20% of them were active in at least one assay; those are over-represented in the sample as a whole. The source made the active and inactive calls. How the source made its calls: active means growth percent below 10; inactive means the rest.
Please respond with reported growth for every item in the list.

### Prompt Could you share which growth value was measured for O=C1/C(=C\c2ccco2)SC(=S)N1CCc1ccc(O)cc1 ?
### Response 54.9% (inactive)

### Prompt Check CCN(CC)c1ccc(/C=N/NC(=O)c2ccc(Nc3ccnc(C(F)(F)F)c3)cc2)c(O)c1 too.
### Response 8.37% (active)

### Prompt What do you get for Cc1cccc(Oc2ccc(Nc3ncnc4ccc(NC(=O)CNCCO)cc34)cc2Cl)c1 ?
### Response -21.9% (active)

### Prompt Further, for CC1(C)CC2=C3C=C[C@@H]4[C@@]5(C)CCC(=O)C(C)(C)[C@@H]5CC[C@@]4(C)[C@]3(C)CC[C@@]2(C(=O)O)CC1=O ?
### Response 74.2% (inactive)

### Prompt Further, for CCOC(=O)NCCc1nc2c([nH]1)c(=O)n(C)c(=O)n2C ?
### Response 112% (inactive)

### Prompt c1ccc(Sc2ncccn2)nc1 ?
### Response 97% (inactive)

### Prompt And for O=[N+]([O-])c1ccc(NCSc2ccc(Cl)cc2)cc1 ?
### Response 98.6% (inactive)

### Prompt Ok, now COc1ccc(-c2nn(-c3cccc(Cl)c3)cc2-c2cc(-c3ccccc3)[nH]c(=O)c2C#N)cc1
### Response 16.4% (inactive)

### Prompt CN1CCN(Cc2cc(NC(=O)c3cccc(C#Cc4cccc5[nH]nc(N)c45)c3)cc(C(F)(F)F)c2)CC1 , same question.
### Response 10.8% (inactive)

### Prompt // same read-out, input: Cc1cc(C)c(N2C(=O)CC(Sc3ccccc3N)C2=O)c(C)c1 (stereo not given)
### Response 45.6% (inactive)

====

test system: MDA-MB-468 breast; assay: NCI-60 one-dose screen, 48 h (100 = growth as untreated, 0 = no growth, -100 = all killed); conditions: 10 µM unless noted
About 83,000 compounds went through this panel and 20% of them were active in at least one assay; those are over-represented in the sample as a whole.
QUANTITY: growth (%)
The reply should contain only the number, in %.

### Prompt Can you share its growth? I mean this compound: COc1cnc2c(c1)C(=O)c1c-2n(CCCN2CCC(N)CC2)c(=O)c2cc([N+](=O)[O-])ccc12
### Response 74

### Prompt Can you check CC(=O)OC[C@H]1OC(Sc2sc(C(=O)c3ccc(Cl)cc3)c(N)c2-c2nc3ccccc3s2)[C@H](OC(C)=O)[C@@H](OC(C)=O)[C@@H]1OC(C)=O (some centres undefined) next?
### Response 112

### Prompt Try COc1cnc2c(c1)C(=O)c1c-2n(CCCN2CCC(O)CC2)c(=O)c2cc(Cl)ccc12 next.
### Response 38.5

### Prompt For COc1ccc2c(c1)oc1c3[nH]c4ccccc4c3c3c(c21)C(=O)N(O)C3=O then?
### Response -17.7

====

system: MDA-MB-468 breast; test: NCI-60 one-dose screen, 48 h; settings: 10 µM unless noted
This is part of a sample that, as a whole, favours compounds with a hit. Of some 83,000 tested, about 20% had one in any assay. Activity calls are given as the source filed them. Rule for the calls: active = growth percent below 10; inactive = the rest.
Mark one answer only. Choices: active, inactive

### Prompt Identify the outcome logged in this assay for the compound shown: COCC[C@H]1CCC/C=C/[C@@H]2C[C@H](O)C[C@H]2[C@H](O)/C=C/C(=O)O1
### Response active

### Prompt // repeat for CCCC(C)OCC(=O)O (stereo not given) and report
### Response inactive

### Prompt What do we get for O=S(=O)(NCCCNc1cc(-c2cn(-c3ccccc3)nc2-c2cccc(O)c2)ccn1)c1ccc(Cl)cc1 ?
### Response active

### Prompt Please do the same for CCCCCCCCCC[N+](C)(C)N as well.
### Response inactive

### Prompt Now the compound O=C(O)c1ccc(NCc2cn(-c3ccc(C(F)(F)F)cc3)nc2-c2ccc(C(=O)O)cc2)cc1
### Response inactive

### Prompt Follow-up item: O=C(N/N=C\c1cc(Cl)ccc1[N+](=O)[O-])c1ccco1
### Response inactive

### Prompt Consider next the compound CC(=O)OCC1SC(OC(C)=O)C(NC(=O)/C=C/CCl)C(OC(C)=O)C1OC(C)=O (stereo not given) in the same way.
### Response inactive

### Prompt Would you kindly repeat that for Cc1cc(C(=O)Nc2ncc(Cc3cccc(C(F)(F)F)c3)s2)c2ccccc2n1 ?
### Response active

### Prompt What do you get for COc1cc(/C=C(/c2ccccc2)[N+](=O)[O-])c(OC)c2c1OCO2 ?
### Response active

### Prompt Try this compound too: O=C1COCCN1c1ccc(Nc2nc(Cl)nc(N3CCOCC3)n2)cc1
### Response inactive

### Prompt Continue with COC(=O)[C@]12CC[C@@H](C)[C@H](C)[C@@H]1C1=CC[C@@H]3[C@@]4(C)C(C=O)=C[C@@](C)(COC(=O)c5ccco5)C4=CC[C@@]3(C)[C@]1(C)CC2
### Response active

### Prompt What do you have for CCCCCCCCCCCCCCCCCC1=NCCN1CCOC1=C(Cl)C(=O)c2ccccc2C1=O ?
### Response active

### Prompt Similarly, CC(C)(C)N1CCC1CN (stereo not given) ?
### Response inactive

### Prompt Again, but for COc1ccc(/C=N/C2=NNC(C)(c3ccccc3O)N2C(Cc2c[nH]c3ccccc23)C(=O)O)cc1 (stereo not given)
### Response active

### Prompt Queued: COc1cc(OC)cc(-c2ccc(-c3ccc(C(=N)N)s3)s2)c1
### Response active

### Prompt Moving on to CC(=O)c1ccc(N=C(C#N)C2=C(O)c3ccccc3C2=O)cc1
### Response inactive

### Prompt Request: COC12C=C/C(=C(/C(=O)OCCSc3ccnn3C)C(=O)CCCCCCCCC3(OC)C=C/C(=C(/C(=O)OCCSc4ccnn4C)C(=O)CCCCCCCC1)O3)O2
### Response active

### Prompt // query: CC/C=C\C[C@H](O)C/C=C1/C(=O)C=C[C@@H]1C/C=C\CCCC(=O)N(C)C
### Response active

### Prompt Try this compound too: CCNC1=CC(=O)c2ncccc2C1=O
### Response inactive

### Prompt Param item: CC(C)[C@@]12C[C@@H](OC(=O)COC(=O)c3ccccc3)[C@@](C)(O1)[C@@H]1CC[C@@H](C)[C@H]1[C@@H]2OC(=O)/C=C/c1ccccc1
### Response inactive
